All values here come from patent US20210171613A1.

- study.system: T1, Clostridium difficile toxin A (TcdA) (Clostridium difficile, UniProt P16154 1-2710)
- T1 construct: mature; also called full-length TcdA
- T1 sequence (P16154 whole entry): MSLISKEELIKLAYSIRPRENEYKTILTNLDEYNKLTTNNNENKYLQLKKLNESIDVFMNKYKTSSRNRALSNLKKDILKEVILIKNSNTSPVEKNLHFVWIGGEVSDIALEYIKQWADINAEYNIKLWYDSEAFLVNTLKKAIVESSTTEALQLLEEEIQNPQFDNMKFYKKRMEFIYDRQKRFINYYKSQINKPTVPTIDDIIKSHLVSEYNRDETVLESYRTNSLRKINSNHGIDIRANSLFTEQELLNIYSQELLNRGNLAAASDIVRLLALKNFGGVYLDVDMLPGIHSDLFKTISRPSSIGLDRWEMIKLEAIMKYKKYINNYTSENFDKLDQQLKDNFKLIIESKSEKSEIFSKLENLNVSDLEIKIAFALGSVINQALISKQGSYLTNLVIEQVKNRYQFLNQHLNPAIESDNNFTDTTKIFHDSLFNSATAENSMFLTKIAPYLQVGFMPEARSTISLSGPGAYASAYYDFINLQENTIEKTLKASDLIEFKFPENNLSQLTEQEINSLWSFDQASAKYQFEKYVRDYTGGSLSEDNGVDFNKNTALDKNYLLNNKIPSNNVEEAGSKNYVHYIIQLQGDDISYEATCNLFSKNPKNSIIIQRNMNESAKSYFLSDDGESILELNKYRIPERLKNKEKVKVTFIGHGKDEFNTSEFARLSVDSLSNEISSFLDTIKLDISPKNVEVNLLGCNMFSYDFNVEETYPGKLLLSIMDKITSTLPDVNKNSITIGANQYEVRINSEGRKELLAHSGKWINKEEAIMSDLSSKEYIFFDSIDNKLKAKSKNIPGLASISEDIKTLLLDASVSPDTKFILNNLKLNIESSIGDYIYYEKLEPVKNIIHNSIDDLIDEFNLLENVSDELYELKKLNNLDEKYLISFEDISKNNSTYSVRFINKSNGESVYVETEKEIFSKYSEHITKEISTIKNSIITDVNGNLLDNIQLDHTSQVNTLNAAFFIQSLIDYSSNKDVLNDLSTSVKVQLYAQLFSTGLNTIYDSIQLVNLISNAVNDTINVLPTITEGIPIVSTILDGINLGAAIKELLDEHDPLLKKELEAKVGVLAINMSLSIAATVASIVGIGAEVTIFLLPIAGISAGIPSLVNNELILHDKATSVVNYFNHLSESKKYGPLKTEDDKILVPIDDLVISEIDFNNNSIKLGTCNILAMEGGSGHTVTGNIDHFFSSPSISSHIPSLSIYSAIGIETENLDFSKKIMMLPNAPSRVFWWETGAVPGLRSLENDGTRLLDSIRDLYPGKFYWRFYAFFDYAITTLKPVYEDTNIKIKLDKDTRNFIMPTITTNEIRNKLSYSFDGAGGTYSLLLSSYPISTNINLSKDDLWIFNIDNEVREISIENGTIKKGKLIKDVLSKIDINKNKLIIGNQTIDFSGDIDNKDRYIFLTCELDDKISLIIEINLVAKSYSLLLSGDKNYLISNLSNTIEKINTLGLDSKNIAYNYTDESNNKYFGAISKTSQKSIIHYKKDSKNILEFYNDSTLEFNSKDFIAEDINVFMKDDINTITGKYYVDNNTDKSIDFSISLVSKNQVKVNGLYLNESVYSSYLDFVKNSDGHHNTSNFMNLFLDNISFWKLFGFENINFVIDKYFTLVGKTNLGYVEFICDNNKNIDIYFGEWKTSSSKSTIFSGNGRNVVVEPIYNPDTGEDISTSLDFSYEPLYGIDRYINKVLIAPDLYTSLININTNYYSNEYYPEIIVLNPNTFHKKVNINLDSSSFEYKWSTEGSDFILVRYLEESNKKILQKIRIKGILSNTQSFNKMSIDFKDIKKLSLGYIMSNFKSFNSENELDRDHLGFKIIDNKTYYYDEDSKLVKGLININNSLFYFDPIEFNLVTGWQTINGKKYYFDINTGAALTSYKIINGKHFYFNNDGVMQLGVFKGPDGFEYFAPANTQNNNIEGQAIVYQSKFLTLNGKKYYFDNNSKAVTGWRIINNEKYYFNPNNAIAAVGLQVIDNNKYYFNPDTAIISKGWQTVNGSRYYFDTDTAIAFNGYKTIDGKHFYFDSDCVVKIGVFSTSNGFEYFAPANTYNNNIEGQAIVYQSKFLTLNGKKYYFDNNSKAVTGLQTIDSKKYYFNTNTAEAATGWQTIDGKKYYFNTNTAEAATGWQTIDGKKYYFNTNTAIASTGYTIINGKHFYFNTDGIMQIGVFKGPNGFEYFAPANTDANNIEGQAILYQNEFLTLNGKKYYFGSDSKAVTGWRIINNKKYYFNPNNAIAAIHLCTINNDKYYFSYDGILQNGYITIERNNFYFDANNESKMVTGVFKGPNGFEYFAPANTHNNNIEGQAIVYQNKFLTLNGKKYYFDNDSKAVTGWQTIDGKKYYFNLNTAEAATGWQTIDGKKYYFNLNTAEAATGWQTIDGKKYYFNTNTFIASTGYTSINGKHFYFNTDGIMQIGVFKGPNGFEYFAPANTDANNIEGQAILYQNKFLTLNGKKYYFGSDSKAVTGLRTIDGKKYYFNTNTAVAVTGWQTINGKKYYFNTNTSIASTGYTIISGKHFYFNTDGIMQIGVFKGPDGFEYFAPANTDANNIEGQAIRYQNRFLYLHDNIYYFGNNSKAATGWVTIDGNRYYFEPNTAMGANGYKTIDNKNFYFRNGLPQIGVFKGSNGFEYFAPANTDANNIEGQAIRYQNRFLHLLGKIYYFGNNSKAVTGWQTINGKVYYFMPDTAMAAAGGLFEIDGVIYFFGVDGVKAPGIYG
- test.protocol: SPR on immobilized TcdA
measured.attribute: fold improvement in binding affinity relative to parent A26.8 VHH

binder	value.observed
A26.8-T103R (VHH, not shown: small tags and cut ends) VHH: QVKLEESGGGLVQAGGSLRLSCAASERTFSRYPVAWFRQAPGAEREFVAVISSTGTSTYYADSVKGRFTISRDNAKVTVYLQMNNLKREDTAVYFCAVNSQRRRLQDPNEYDYWGQGTQVTVSS	~3 fold
A26.8-T103K (VHH, not shown: small tags and cut ends) VHH: QVKLEESGGGLVQAGGSLRLSCAASERTFSRYPVAWFRQAPGAEREFVAVISSTGTSTYYADSVKGRFTISRDNAKVTVYLQMNNLKREDTAVYFCAVNSQRKRLQDPNEYDYWGQGTQVTVSS	> 2 fold
A26.8-T56R (VHH, not shown: small tags and cut ends) VHH: QVKLEESGGGLVQAGGSLRLSCAASERTFSRYPVAWFRQAPGAEREFVAVISSTGRSTYYADSVKGRFTISRDNAKVTVYLQMNNLKREDTAVYFCAVNSQRTRLQDPNEYDYWGQGTQVTVSS	~3 fold
A26.8-Q101K (VHH, not shown: small tags and cut ends) VHH: QVKLEESGGGLVQAGGSLRLSCAASERTFSRYPVAWFRQAPGAEREFVAVISSTGTSTYYADSVKGRFTISRDNAKVTVYLQMNNLKREDTAVYFCAVNSKRTRLQDPNEYDYWGQGTQVTVSS	> 2 fold
